Cited source: ChEMBL document CHEMBL1137290

# IC50 per entry
molecular target: Melanocortin receptor 5 (Homo sapiens); experiment: Displacement of [125I]NDP-alpha-MSH from human MC5R expressed in HEK293 cells
The figure you give is taken to be in nM; do not add the unit.

NC(N)=NCCC[C@H](NC(=O)CCc1c[nH]c2ccccc12)C(=O)N1C[C@@H]2CCCN2C[C@@H]1Cc1ccccc1    0.1

Next item in the queue.
I would be grateful if you could share the reported IC50 for O=C(CCC(=O)N1C[C@@H]2CCCN2C[C@@H]1Cc1ccccc1)NCCc1c[nH]c2ccccc12 .
0.5

---

molecular target: Melanocortin receptor 5 (Homo sapiens, UniProt P33032); assay: Displacement of [125I]NDP-alpha-MSH from human MC5R expressed in HEK293 cells relative to MT-II; type: cell-based
Sequence (P33032 whole entry): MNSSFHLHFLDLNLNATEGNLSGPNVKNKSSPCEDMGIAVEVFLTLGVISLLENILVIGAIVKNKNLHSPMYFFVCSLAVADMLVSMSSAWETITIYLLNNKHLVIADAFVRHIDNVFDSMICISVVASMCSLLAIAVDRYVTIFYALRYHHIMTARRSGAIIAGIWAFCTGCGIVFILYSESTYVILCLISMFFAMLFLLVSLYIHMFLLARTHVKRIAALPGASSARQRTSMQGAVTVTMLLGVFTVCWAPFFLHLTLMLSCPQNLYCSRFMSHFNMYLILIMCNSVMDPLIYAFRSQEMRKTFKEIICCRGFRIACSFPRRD
reported_metric: Activity (%)
# number only, unit % dropped from output

In the examples that follow, each entry is paired with its recorded Activity.
N=C(N)NCCC[C@H](NC(=O)CCc1c[nH]c2ccccc12)C(=O)N1C[C@@H]2CCCN2C[C@@H]1Cc1ccccc1    60
O=C(CCC(=O)N1C[C@@H]2CCCN2C[C@@H]1Cc1ccccc1)NCCc1c[nH]c2ccccc12    50
O=C(CCc1c[nH]c2ccccc12)NCCCCCC(=O)N1C[C@@H]2CCCN2C[C@@H]1Cc1ccccc1    65
O=C(CCc1c[nH]c2ccccc12)N1C[C@@H]2CCCN2C[C@@H]1Cc1ccccc1    50

Now consider a different compound.
Which Activity reading was recorded for the compound O=C(CCC(=O)N1C[C@@H]2CCCN2C[C@H]1Cc1ccccc1)NCCc1c[nH]c2ccccc12 ?
60

---

target: Melanocortin receptor 5 (Homo sapiens, UniProt P33032); test: Displacement of [125I]NDP-alpha-MSH from human MC5R expressed in HEK293 cells
reported_metric: IC50

O=C(CCc1c[nH]c2ccccc12)NCCCCCC(=O)N1C[C@@H]2CCCN2C[C@@H]1Cc1ccccc1    0.4 nM
O=C(Cc1ccccc1)N1C[C@@H]2CCCN2C[C@@H]1Cc1ccccc1    > 10000 nM
O=C(CCc1c[nH]c2ccccc12)N1C[C@@H]2CCCN2C[C@H]1Cc1ccccc1    > 10000 nM

Query (compound): O=C(CCc1c[nH]c2ccccc12)N1C[C@@H]2CCCN2C[C@@H]1Cc1ccccc1 ; field requested: IC50
0.8 nM

Reported IC50, compound O=C(CCC(=O)N1C[C@@H]2CCCN2C[C@H]1Cc1ccccc1)NCCc1c[nH]c2ccccc12 : ____
0.1 nM

---

Overview of recorded pEC50 for various compounds
target: Melanocyte-stimulating hormone receptor (Homo sapiens, UniProt Q01726); assay: Activity at human MC1R expressed in HEK293 cells assessed by measuring intracellular cAMP accumulation; assay type: functional, cell-based
Sequence (Q01726 whole entry): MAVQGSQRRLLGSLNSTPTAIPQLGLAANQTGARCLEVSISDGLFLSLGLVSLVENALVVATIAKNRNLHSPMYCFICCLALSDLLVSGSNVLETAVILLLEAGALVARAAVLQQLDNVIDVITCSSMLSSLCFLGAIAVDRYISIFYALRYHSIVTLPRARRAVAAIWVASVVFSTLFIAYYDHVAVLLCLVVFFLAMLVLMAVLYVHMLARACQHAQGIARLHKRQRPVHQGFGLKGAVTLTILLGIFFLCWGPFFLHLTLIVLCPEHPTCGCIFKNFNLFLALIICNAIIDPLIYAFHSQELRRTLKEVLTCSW
pEC50: −log10 of the molar value.

Some solved cases for reference:
O=C(CCC(=O)N1C[C@@H]2CCCN2C[C@@H]1Cc1ccccc1)NCCc1c[nH]c2ccccc12    < 5.00
NC(N)=NCCC[C@H](NC(=O)CCc1c[nH]c2ccccc12)C(=O)N1C[C@@H]2CCCN2C[C@@H]1Cc1ccccc1    < 5.00
O=C(Cc1ccccc1)N1C[C@@H]2CCCN2C[C@H]1Cc1ccccc1    < 5.00

Could you tell me which pEC50 is on file for O=C(CCc1c[nH]c2ccccc12)N1C[C@@H]2CCCN2C[C@H]1Cc1ccccc1 ?
< 5.00

Entry O=C(CCC(=O)N1C[C@@H]2CCCN2C[C@H]1Cc1ccccc1)NCCc1c[nH]c2ccccc12 has what pEC50?
< 5.00

Form field: reported pEC50 of O=C(CCc1c[nH]c2ccccc12)NCCCCCC(=O)N1C[C@@H]2CCCN2C[C@@H]1Cc1ccccc1
< 5.00

Look at this compound and give its reported pEC50. O=C(CCc1c[nH]c2ccccc12)N1C[C@@H]2CCCN2C[C@@H]1Cc1ccccc1
< 5.00

Consider the compound shown here: O=C(Cc1ccccc1)N1C[C@@H]2CCCN2C[C@@H]1Cc1ccccc1 What is its recorded pEC50?
< 5.00
